The reported measurements were obtained from PubChem BioAssay.

Experiment: adipocyte viability effects, profiling panel, cell-based, 3T3-L1 adipocytes, calcein-AM fluorescence, 48 h, basal (AID 1163); note: test concentration not given here
Conditions: 3T3-L1 adipocytes viability, higher = more signal
Decide using z-score alone. Strictly below 0.1: class 1. Equal to or above 0.1: class 0.

[
  {
    "compound": "COC(=O)[C@H](C)NC(=O)CCC1CC(OC(=O)NCCc2ccc(F)cc2)CC2(CCCC(COC(=O)NCCC(C)C)O2)O1 (some centres not stated)",
    "answer.label": "class 0"
  },
  {
    "compound": "CO[C@@H]1COC(=O)[C@@H](C)COC(=O)[C@@H](C)NC(=O)CC=C[C@@H]1C",
    "answer.label": "class 0"
  },
  {
    "compound": "CC(CCN1CCc2nc(-c3ccccc3)c(-c3ccccc3)cc2C1)=NOC[C@@H](O)COCc1ccco1",
    "answer.label": "class 1"
  },
  {
    "compound": "CC1O[C@H]2C3=C(C(=O)[C@@H]4O[C@@H]4[C@H]3O)[C@@H]1C1[C@@H](C)OC=C3[C@H](O)C4O[C@@H]4C(=NOCc4ccccc4)[C@]312 (some centres not stated)",
    "answer.label": "class 0"
  },
  {
    "compound": "CCOC(=O)[C@H](Cc1ccccc1)NC(=O)CCC1CC(OC(=O)NCCc2ccc(F)cc2)CC2(CCCC(COC(=O)NCc3ccccc3)O2)O1 (some centres not stated)",
    "answer.label": "class 1"
  },
  {
    "compound": "CO[C@H]1COC(=O)CCC[C@@H](C)[C@H](OC)COC(=O)[C@@H](C)NC(=O)CC=C[C@@H]1C",
    "answer.label": "class 0"
  },
  {
    "compound": "COC(=O)CC=C[C@@H](C)[C@H](OCc1cccc(-c2ccccc2)c1)C1CCCCC1",
    "answer.label": "class 1"
  }
]

====

Assay: small-molecule microarray binders of probe aXIP, primary screen, biochemical, NeuroSMM set, 635/667 nm fluorescence (AID 1119);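 note: probe is the protein aXip251-270 applied at 1 µg/mL to compound-printed slides; binding of probe to printed compounds measured as 667 nm fluorescence plus signal to noise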
Details: higher = more signal, called active from +8 up or from −8 down
Definition: the class of an entry is the range in low band (below -0.2), middle band (-0.2 to below 0.4), high band (0.4 or more) that contains its composite Z-score.

[
  {
    "compound": "COC(=O)CC=C[C@@H](C)[C@@H](C=NOC[C@H]1O[C@H](c2ccccc2)C=C[C@@H]1Oc1ccc(OC)cc1)NS(=O)(=O)c1ccc(C)cc1",
    "answer.label": "low band"
  },
  {
    "compound": "C#CCCCON=C1[C@H]2CCn3c(=O)n(-c4ccccc4)c(=O)n3[C@H]2[C@H](O)[C@@H]2O[C@H]12",
    "answer.label": "low band"
  },
  {
    "compound": "COC(=O)CC=C[C@@H](C)[C@@H](C=NOCC[C@@H]1C=C[C@H](OC(C)=O)[C@@H](COC(C)=O)O1)NS(=O)(=O)c1ccc(C)cc1",
    "answer.label": "middle band"
  },
  {
    "compound": "CCOC(=O)[C@H](CC(C)C)NC(=O)CCC1CC(OC(=O)NCc2cccc3ccccc23)CC2(CCCC(COC(=O)NCCCN3CCCC3=O)O2)O1 (some centres undefined)",
    "answer.label": "middle band"
  },
  {
    "compound": "C#CCCCON=C1C[C@@H](O)[C@@H](O)[C@@H]2[C@@H]3C(=O)N(c4ccc(F)cc4F)C(=O)[C@@H]3CC[C@@H]12",
    "answer.label": "low band"
  },
  {
    "compound": "CC(C)(C)N1C(=O)[C@H]2[C@H]3[C@H](O)C=CC(=O)[C@@H]3CC[C@H]2C1=O",
    "answer.label": "high band"
  },
  {
    "compound": "CCOC(=O)[C@H](CC(C)C)NC(=O)CCC1CC(OC(=O)NCc2cccc3ccccc23)CC2(CCCC(COC(=O)NCCOc3ccccc3)O2)O1 (some centres undefined)",
    "answer.label": "low band"
  },
  {
    "compound": "COC(=O)CC=C[C@@H](C)[C@H](OCc1cccc(-c2ccccc2)c1)C1CCCCC1",
    "answer.label": "middle band"
  },
  {
    "compound": "Cc1cc2c(nc1C)CCCCN2CC(C)ON=C1[C@H]2CCn3c(=O)n(-c4ccccc4)c(=O)n3[C@H]2[C@H](O)[C@@H]2O[C@H]12 (some centres undefined)",
    "answer.label": "low band"
  },
  {
    "compound": "CO[C@@H]1C=CCC(=O)N[C@@H](C)C(=O)OC[C@@H](OC)[C@H](C)CCCC(=O)OC[C@H]1C",
    "answer.label": "low band"
  },
  {
    "compound": "O=C1C[C@@H](O)[C@@H](O)[C@@H]2[C@@H]3C(=O)N(Cc4ccccc4)C(=O)[C@@H]3CC[C@@H]12",
    "answer.label": "middle band"
  },
  {
    "compound": "CO[C@H]1COC(=O)[C@@H](C)COC(=O)[C@H](COCc2ccccc2)NC(=O)CC=C[C@H]1C",
    "answer.label": "high band"
  },
  {
    "compound": "COC(=O)[C@@H]1CC[C@H](C)[C@@H](c2ccc(C)cc2)N1C(=O)c1ccc(C=NO[C@@H]2O[C@H](COC(C)=O)[C@@H](OC(C)=O)[C@H](OC(C)=O)[C@H]2OC(C)=O)cc1",
    "answer.label": "middle band"
  },
  {
    "compound": "CCOC(=O)C1=NO[C@@]2(C=C(Br)C3(OCCCO3)[C@H]3O[C@H]32)C1",
    "answer.label": "high band"
  },
  {
    "compound": "COC(=O)[C@H]1[C@@H](O)[C@@]2(O)c3ccccc3O[C@@]2(c2ccccc2)[C@@H]1c1ccccc1",
    "answer.label": "high band"
  },
  {
    "compound": "C=CC[C@@H]1C=C[C@H](ON=C(C)CCC(=O)OC[C@H]2O[C@H](c3ccccc3)C=C[C@@H]2Oc2ccc(OC)cc2)[C@@H](CO)O1",
    "answer.label": "high band"
  },
  {
    "compound": "CC(C)CON=C1C[C@@H](O)[C@@H](O)[C@@H]2[C@@H]3C(=O)N(C4CCCCC4)C(=O)[C@@H]3CC[C@@H]12",
    "answer.label": "middle band"
  },
  {
    "compound": "CC(CCN1CCCCc2nc(C)c(C)cc21)=NOC[C@@H](C)[C@H](OCc1ccccc1)C(C)C",
    "answer.label": "low band"
  },
  {
    "compound": "O=C1C=C[C@@H](O)[C@@H]2[C@@H]3C(=O)N(c4ccc(F)cc4F)C(=O)[C@@H]3CC[C@@H]12",
    "answer.label": "middle band"
  },
  {
    "compound": "O=C1[C@H]2[C@H]3[C@H](O)[C@H](O)CC(=NOCc4ccccc4)[C@@H]3CC[C@H]2C(=O)N1c1ccc(F)cc1F",
    "answer.label": "middle band"
  },
  {
    "compound": "CO[C@@H]1COC(=O)CC=C[C@@H](C)[C@@H]2C=C[C@H](O)[C@@H](COC(=O)CC=C[C@H]1C)O2",
    "answer.label": "high band"
  },
  {
    "compound": "COC(=O)[C@H](C)NC(=O)CCC1CC(OC(=O)NCc2ccc3c(c2)OCO3)CC2(CCCC(COC(=O)NCC(c3ccccc3)c3ccccc3)O2)O1 (some centres undefined)",
    "answer.label": "middle band"
  },
  {
    "compound": "C#CCCCON=C1C[C@@H](O)[C@@H](O)[C@@H]2[C@@H]3C(=O)N(CC)C(=O)[C@@H]3CC[C@@H]12",
    "answer.label": "middle band"
  },
  {
    "compound": "CCOC(=O)[C@H](CC(C)C)NC(=O)CCC1CC(OC(=O)NCCc2ccc(F)cc2)CC2(CCCC(COC(=O)NCCc3ccc(Cl)cc3)O2)O1 (some centres undefined)",
    "answer.label": "middle band"
  },
  {
    "compound": "COC(=O)[C@@H]1CC[C@H](C)[C@@H](c2ccc(C)cc2)N1C(=O)c1ccc(C=NO[C@@H](C)c2cn([C@H](CO)Cc3ccccc3)nn2)cc1",
    "answer.label": "low band"
  },
  {
    "compound": "COc1ccc(O[C@@H]2[C@H](O)CO[C@H]2C=Cc2ccccc2)cc1",
    "answer.label": "middle band"
  },
  {
    "compound": "CC(=O)O[C@H]1C2=CO[C@H](C)[C@H]3[C@H]4C5=C([C@H](O)[C@H]6O[C@H]6C5=O)[C@H](OC4C)[C@@]23C(=O)[C@@H]2O[C@@H]21 (some centres undefined)",
    "answer.label": "high band"
  }
]

====

Biological target: Calmodulin-1 (Homo sapiens) (UniProt P0DP23)
Experiment: calcium-bound CALM1 binders on microarrays, profiling panel, artefact control for SMM control-protein annotation, biochemical, small-molecule microarray, Cy5-labelled CALM1, plus calcium (AID 1112);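 note: score merges spot fluorescence with signal to noise from triplicate slides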
Conditions: Cy5-CALM1 binding fluorescence, higher = more signal

[
  {
    "compound": "COC(=O)CC=C[C@@H](C)[C@@H](C=NOC(C)CN1CCCc2nc(C)c(C)cc21)OC (stereo partly drawn)",
    "target.or.system": "Calmodulin-1 (Homo sapiens) (UniProt P0DP23)",
    "composite z-score": -0.733
  },
  {
    "compound": "COc1ccc(C#C[C@@H]2C=C[C@H](OC(C)=O)[C@@H](COC(C)=O)O2)cc1",
    "target.or.system": "Calmodulin-1 (Homo sapiens) (UniProt P0DP23)",
    "composite z-score": -0.534
  },
  {
    "compound": "CC[C@@H](c1ccccc1)n1c(=O)n2n(c1=O)[C@H]1[C@H](O)[C@@H]3O[C@@H]3C(=O)[C@H]1CC2",
    "target.or.system": "Calmodulin-1 (Homo sapiens) (UniProt P0DP23)",
    "composite z-score": -0.246
  },
  {
    "compound": "Cc1cc2c(c(=O)o1)[C@@H](O)[C@H]1O[C@H]1C2=O",
    "target.or.system": "Calmodulin-1 (Homo sapiens) (UniProt P0DP23)",
    "composite z-score": -0.876
  },
  {
    "compound": "COc1cccc([C@H]2Oc3ccc(OC)cc3C(=NO[C@@H](C)c3cn([C@H](CO)Cc4ccccc4)nn3)[C@@H]2O)c1",
    "target.or.system": "Calmodulin-1 (Homo sapiens) (UniProt P0DP23)",
    "composite z-score": -0.0011
  },
  {
    "compound": "CO[C@H]1COC(=O)[C@@H](Cc2ccccc2)NC(=O)[C@@H](C)COC(=O)CCC[C@@H]1C",
    "target.or.system": "Calmodulin-1 (Homo sapiens) (UniProt P0DP23)",
    "composite z-score": -0.679
  },
  {
    "compound": "CO[C@H]1COC(=O)[C@H](C)NC(=O)[C@@H](C)COC(=O)[C@H]2CCCN2C(=O)CC=C[C@H]1C",
    "target.or.system": "Calmodulin-1 (Homo sapiens) (UniProt P0DP23)",
    "composite z-score": -1.38
  },
  {
    "compound": "Cc1ccc(S(=O)(=O)NC(CCc2ccccc2)CC(=O)C(C)(C)C)cc1 (stereo not drawn)",
    "target.or.system": "Calmodulin-1 (Homo sapiens) (UniProt P0DP23)",
    "composite z-score": -0.418
  }
]
